Cited source for all entries: the supplement of paper PMC10567573

B1: CCDC6 (parent)
chain: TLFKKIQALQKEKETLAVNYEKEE

- Variants of: B1
- Protocol Details: protein stability index of a GFP-peptide fusion (GPS, HEK-293T) (PSI 1-6); higher = more stable;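 note: lentivirally expressed fusions sorted by FACS into six bins by GFP to DsRed ratio, PSI derived from sequencing read proportions per bin multiplied by bin number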
- Conditions Used: c terminus: a fixed tail appended
Measured protein stability index values are reported for all entries that follow.
Property Label: protein stability index

* T1R | 3.04
* L9F | 3.46
* K11G | 3.71
* Q7M | 2.73
* V18S | 3.31
* Q10V | 2.91
* K13V | 1.84
* Q7A | 2.85
* L2N | 5.26
* F3K | 4.78
* N19F | 2.18
* Q7W | 1.99
